Exercise: state measured koff for each of the binders provided.
Molecular target: SARS-CoV-2 RBD protein (Sino Biological, Cat: 40592-V08B) (SARS-CoV-2, UniProt P0DTC2 319-541)
Experiment: BLI (Octet), mAb on Protein A sensor
Give bare numbers, in s⁻¹.

Consider the worked cases shown below.
>>> reading("CoV2-32 (antibody, V domains shown) VH: EVQLVESGGGLVQPGRSLRLSCAAPRFTFDDYAIHWVRQVPGKGLEWVSGSSWNSGTIGYAPSVKGRFTISRDNAKNSLFLQMNSLRVEDTALYYCAILPGDYNRVADVFDIWGQGTMVIVSS VL: QAVVTQPPSVSGAPGQRVTISCTGSSSNIGAGYDVHWYQQLPGTAPKLLIYGNNNRPSGVPDRFSGSKSGTSASLAITGLQVEDEADYYCQSYDSSLSGYVFGTGTKVTVL")
0.00158
>>> reading("CoV2-01 (antibody, V domains shown) VH: QVLLVQSGAEMKKPGASVKVSCKTSGYTFTNSYIHWVRQAPGQGLEWMGWINPISGGTNYAQKFQGRVTMTRDTSINTAYMELSRLRSDDTAVYYCARDRGDYDYGWGTSPFYFDYWGQGTLVTVSS VL: DVQMTQSPSSLSASVGDRVTITCRASQSISRYLNWYQQKPGKAPKLLIYAASSLQSGVPSRFSGSGSGADFTLTISSLQPEDFATYYCQQSFSPPITFGQGTRLEIK")
0.000574

Incoming: Supply recorded koff for CoV2-13 (antibody, V domains shown) VH: QVQLQQSGAEVKKPGSSVKVSCKASGGNFRSHTFSWVRQAPGQGLEWMGEIMPRFGATNYAQKFQGRVTITADESTGTTYMELSSLKSHDTAVYFCAADLGSGRKFDSWAQGTLVSVSS VL: NIQMTQSPSSLSASVGDRVTITCRASQGIGSDLGWYQQRPGKAPKRLIYAASSLQSGVPSRFSGSGSGTEFTLTISSLQPEDFATYYCLQHNSYPLTFGQGTKVEIK here.
Outgoing: 0.00103
